- target: T1, his-tagged human CDH6 extracellular region protein (hCDH6 ECD-his) (human, UniProt P55285 19-615)
- T1 construct: also called Human CDH6-his; hCDH6-his; not shown: his tag
- T1 sequence: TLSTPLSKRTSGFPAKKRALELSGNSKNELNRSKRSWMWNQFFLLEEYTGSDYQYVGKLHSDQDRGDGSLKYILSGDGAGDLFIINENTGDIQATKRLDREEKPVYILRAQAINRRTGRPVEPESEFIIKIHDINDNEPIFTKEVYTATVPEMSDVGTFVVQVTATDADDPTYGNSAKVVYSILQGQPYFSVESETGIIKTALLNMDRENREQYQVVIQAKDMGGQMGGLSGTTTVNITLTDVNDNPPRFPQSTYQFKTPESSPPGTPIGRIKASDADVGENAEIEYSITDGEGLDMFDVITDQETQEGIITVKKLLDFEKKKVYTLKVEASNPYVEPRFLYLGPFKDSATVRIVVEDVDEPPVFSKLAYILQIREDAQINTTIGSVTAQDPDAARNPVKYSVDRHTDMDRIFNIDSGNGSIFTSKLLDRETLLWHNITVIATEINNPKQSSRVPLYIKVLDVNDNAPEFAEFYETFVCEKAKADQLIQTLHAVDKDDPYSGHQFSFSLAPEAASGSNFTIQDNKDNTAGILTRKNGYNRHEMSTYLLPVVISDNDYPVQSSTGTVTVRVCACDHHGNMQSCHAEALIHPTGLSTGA
- test_description: ELISA, coated antigen
Please respond with reported pEC50 for every item in the list.
Numbers only, as −log10 of the molar value.

// known answers, use as guide
1) hCDH6-6-H2L2 (antibody, V domains shown, Humanized) VH: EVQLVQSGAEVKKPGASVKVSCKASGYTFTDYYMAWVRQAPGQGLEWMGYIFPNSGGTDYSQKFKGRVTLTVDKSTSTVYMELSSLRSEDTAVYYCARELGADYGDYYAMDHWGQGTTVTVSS VL: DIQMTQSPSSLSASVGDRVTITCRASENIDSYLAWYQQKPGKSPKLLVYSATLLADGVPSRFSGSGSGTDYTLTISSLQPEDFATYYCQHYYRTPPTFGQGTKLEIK :: 10.59
2) CHI-CDH6-6 (antibody, human IgG1, kappa, V domains shown, also called CHI-hCDH6-6; chimeric antibody of murine CDH6-6) VH: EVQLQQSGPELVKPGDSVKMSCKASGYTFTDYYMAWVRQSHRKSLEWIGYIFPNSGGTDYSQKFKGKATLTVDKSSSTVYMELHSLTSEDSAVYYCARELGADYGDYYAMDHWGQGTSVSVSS VL: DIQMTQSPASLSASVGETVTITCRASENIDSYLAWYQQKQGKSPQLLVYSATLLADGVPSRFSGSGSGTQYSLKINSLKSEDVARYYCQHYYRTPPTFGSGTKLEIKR :: 10.55
3) hCDH6-6-H3L2 (antibody, V domains shown, Humanized) VH: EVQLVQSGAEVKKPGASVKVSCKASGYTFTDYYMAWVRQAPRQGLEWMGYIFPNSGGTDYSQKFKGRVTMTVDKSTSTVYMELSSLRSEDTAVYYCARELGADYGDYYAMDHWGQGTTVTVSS VL: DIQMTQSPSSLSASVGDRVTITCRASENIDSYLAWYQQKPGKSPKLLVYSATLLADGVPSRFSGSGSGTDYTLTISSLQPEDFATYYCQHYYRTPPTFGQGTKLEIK :: 10.52
4) hCDH6-6-H3L1 (antibody, V domains shown, Humanized) VH: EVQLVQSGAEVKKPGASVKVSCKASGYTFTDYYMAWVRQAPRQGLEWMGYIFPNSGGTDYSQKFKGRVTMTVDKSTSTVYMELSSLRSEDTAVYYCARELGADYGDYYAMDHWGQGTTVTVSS VL: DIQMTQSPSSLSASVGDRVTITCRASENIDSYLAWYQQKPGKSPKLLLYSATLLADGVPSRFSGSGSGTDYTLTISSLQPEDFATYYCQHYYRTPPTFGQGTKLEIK :: 10.30

We now examine a further binder.
Challenge: Item hCDH6-6-H2L3 (antibody, V domains shown, Humanized) VH: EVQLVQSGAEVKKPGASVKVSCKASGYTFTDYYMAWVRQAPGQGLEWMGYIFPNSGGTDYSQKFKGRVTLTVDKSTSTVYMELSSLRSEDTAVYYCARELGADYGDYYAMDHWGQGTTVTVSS VL: DIQMTQSPSSLSASVGDRVTITCRASENIDSYLAWYQQKPGKSPQLLVYSATLLADGVPSRFSGSGSGTDYTLTISSLQPEDFATYYCQHYYRTPPTFGQGTKLEIK has what recorded pEC50?
Response given: 10.60
